TGT: hGPR40 (Homo sapiens)
PROTOCOL_NOTES: Calcium flux assay to detect GPR40 activation
ASSAY_SETUP: CHO-K cells stably expressing hGPR40; Fluo-4 NW; read for 4 min at 5 s intervals
pEC50: −log10 of the molar value.
Measured pEC50 by item

MOLECULE: CO/N=C(/COc1ccc(COc2ccc(C(C#N)CC(=O)O)cc2)cc1)c1ccccc1 (single isomer, unassigned) [Compound 100]
TGT: hGPR40 (Homo sapiens)
pEC50: 7.00 to 8.00
//
MOLECULE: CCCC(CC(=O)O)c1ccc(OCc2ccc(OC/C(=N\OC)c3ccccc3)cc2)cc1 (stereo not shown)
TGT: hGPR40 (Homo sapiens)
pEC50: < 7.00
//
MOLECULE: CC(C)O/N=C(/c1ccccc1)c1cccc(CNc2ccc(CCC(=O)O)cc2)c1
TGT: hGPR40 (Homo sapiens)
pEC50: < 7.00
//
MOLECULE: CON=C(COc1ccc(COc2ccc(C(C)(C)CC(=O)O)cc2)cc1)c1ccccc1 (mixture of isomers)
TGT: hGPR40 (Homo sapiens)
pEC50: < 7.00
//
MOLECULE: CO/N=C(\COc1ccc(COc2ccc(/C(CC(=O)O)=N\OCc3ccccc3)cc2)cc1)c1ccccc1
TGT: hGPR40 (Homo sapiens)
pEC50: < 7.00
//
MOLECULE: CO/N=C(\COc1ccc(COc2ccc(CCC(=O)O)c(-c3c(C)noc3C)c2)cc1)c1ccccc1
TGT: hGPR40 (Homo sapiens)
pEC50: < 7.00
//
MOLECULE: CO/N=C(\COc1ccc(COc2ccc(C(C#N)CC(=O)O)cc2)cc1)c1ccc(F)cc1 (stereo not shown) [Compound 34]
TGT: hGPR40 (Homo sapiens)
pEC50: > 8.00

---

TGT: hGPR40 (Homo sapiens, UniProt O14842)
Sequence (O14842 whole entry): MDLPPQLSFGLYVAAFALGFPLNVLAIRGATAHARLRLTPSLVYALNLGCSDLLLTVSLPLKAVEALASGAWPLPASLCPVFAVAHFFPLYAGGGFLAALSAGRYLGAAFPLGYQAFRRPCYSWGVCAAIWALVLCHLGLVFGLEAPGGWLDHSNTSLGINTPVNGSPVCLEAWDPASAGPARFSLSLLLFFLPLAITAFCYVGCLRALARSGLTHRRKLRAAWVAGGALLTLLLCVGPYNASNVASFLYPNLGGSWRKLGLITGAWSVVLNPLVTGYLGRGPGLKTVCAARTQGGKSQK
PROTOCOL_NOTES: Calcium flux assay to detect GPR40 activation
ASSAY_SETUP: CHO-K cells stably expressing hGPR40; Fluo-4 NW; read for 4 min at 5 s intervals

COMPOUND: CO/N=C(\COc1ccc(COc2ccc(C(CC(=O)O)c3ccon3)cc2)cc1)c1ccccc1 (stereo not shown) [Compound 29]
TGT: hGPR40 (Homo sapiens, UniProt O14842)
EC50: < 10 nM
--
COMPOUND: CO/N=C(\COc1ccc(COc2ccc(C(C#N)CC(=O)O)cc2)cc1)c1ccc(F)cc1 (stereo not shown) [Compound 54]
TGT: hGPR40 (Homo sapiens, UniProt O14842)
EC50: 10 to 100 nM
--
COMPOUND: CO/N=C(\COc1ccc(COc2ccc(OCC(=O)O)cc2)cc1)c1ccccc1 [Compound 117]
TGT: hGPR40 (Homo sapiens, UniProt O14842)
EC50: > 100 nM
--
COMPOUND: CO/N=C(\COc1cccc(COc2ccc(CC(C#N)C(=O)O)cc2)c1)c1ccccc1 (stereo not shown) [Compound 8]
TGT: hGPR40 (Homo sapiens, UniProt O14842)
EC50: > 100 nM

---

TGT: UniProtKB O14842
PROTOCOL_NOTES: Calcium flux assay to detect GPR40 activation
ASSAY_SETUP: CHO-K cells stably expressing hGPR40; Fluo-4 NW; read for 4 min at 5 s intervals
Measured EC50 by item

COMPOUND: N#CC(CC(=O)O)c1ccc(OCc2ccc(OC/C(=N\Oc3ccccc3)c3ccccc3)cc2)cc1 (stereo not shown)
EC50: 0.01 to 0.1 µM
--
COMPOUND: CO/N=C(/c1ccccc1)c1cccc(CNc2ccc(CCC(=O)O)cc2)c1
EC50: 0.01 to 0.1 µM
--
COMPOUND: CO/N=C(\COc1ccc(COc2ccc(C(C#N)CC(=O)O)cc2)cc1)c1cccc(F)c1 (stereo not shown) [Compound 55]
EC50: < 0.01 µM
--
COMPOUND: CO/N=C(\COc1ccc(COc2ccc(CCC(=O)O)c(F)c2)cc1)c1ccc(C#N)cc1
EC50: < 0.01 µM
--
COMPOUND: CO/N=C(\COc1ccc(COc2ccc([C@H]3C[C@H]3C(=O)O)cc2)cc1)c1ccc(C#N)cc1
EC50: > 0.1 µM
--
COMPOUND: CO/N=C(/COc1ccc(COc2ccc(C(CC(=O)O)c3ccon3)cc2)cc1)c1cccc(C)c1 (racemic)
EC50: 0.01 to 0.1 µM
--
COMPOUND: CO/N=C(\COc1ccc(CNc2ccc(-c3onc(C)c3CCC(=O)O)cc2)cc1)c1ccc(C#N)cc1
EC50: > 0.1 µM
--
COMPOUND: O=C(O)CCc1ccc(OCc2ccc(OC/C(=N\OCc3ccccc3)c3ccccc3)cc2)cc1
EC50: 0.01 to 0.1 µM
--
COMPOUND: CO/N=C(\COc1ccc(COc2ccc(C(C#N)CC(=O)O)cc2)cc1)c1ccccc1 (single isomer, unassigned; (-)) [Compound 75]
EC50: < 0.01 µM
--
COMPOUND: CO/N=C(\COc1ccc(COc2ccc(C(C#N)CC(=O)O)cc2)cc1F)c1ccccc1 (stereo not shown)
EC50: < 0.01 µM
--
COMPOUND: CO/N=C(\COc1cccc(CNc2ccc(CCC(=O)O)cc2)c1)c1ccccc1
EC50: > 0.1 µM
--
COMPOUND: CO/N=C(/COc1ccc(COc2ccc(-c3c(C(=O)O)noc3C)cc2)cc1)c1ccccc1
EC50: > 0.1 µM
--
COMPOUND: CO/N=C(\COc1ccc(COc2ccc(C(O)CC(=O)O)cc2)cc1)c1ccccc1 (stereo not shown) [Compound 118]
EC50: > 0.1 µM
--
COMPOUND: CO/N=C(/COc1ccc(COc2ccc(C(C#N)CC(=O)O)cc2)cc1)C1CC1 (stereo not shown)
EC50: > 0.1 µM
--
COMPOUND: CO/N=C(\COc1ccc(CNc2ccc([C@@H]3C[C@H]3C(=O)O)cc2)cc1)c1ccccc1C
EC50: 0.01 to 0.1 µM
--
COMPOUND: CO/N=C(\COc1ccc(COc2ccc(C(CC(=O)O)c3ccccc3)cc2)cc1)c1ccccc1 (stereo not shown)
EC50: > 0.1 µM

---

Measured EC50 by item
TGT: hGPR40 (Homo sapiens, UniProt O14842)
PROTOCOL_NOTES: Calcium flux assay to detect GPR40 activation
ASSAY_SETUP: CHO-K cells stably expressing hGPR40; Fluo-4 NW; read for 4 min at 5 s intervals
PROPERTY_LABEL: EC50

COMPOUND: CO/N=C(\COc1ccc(COc2ccc(C3CC3C(=O)O)cc2)cc1)c1ccc(OC)cc1 (stereo not shown) [Compound 57]
RESULT: 10 to 100 nM
--
COMPOUND: CO/N=C(\COc1ccc(COc2ccc(CCC(=O)O)cc2OC)cc1)c1ccccc1
RESULT: > 100 nM
--
COMPOUND: CO/N=C(\COc1ccc(COc2ccc(C(C#N)CC(=O)O)cc2)cc1)c1ccccc1 (stereo not shown) [Compound 16]
RESULT: 10 to 100 nM
--
COMPOUND: CO/N=C(/COc1ccc(COc2ccc(COCC(=O)O)cc2)cc1)c1ccccc1
RESULT: > 100 nM

---

TGT: hGPR40 (Homo sapiens)
PROTOCOL_NOTES: Calcium flux assay to detect GPR40 activation
ASSAY_SETUP: CHO-K cells stably expressing hGPR40; Fluo-4 NW; read for 4 min at 5 s intervals

COMPOUND: CO/N=C(/COc1ccc(COc2ccc(C(C#N)CC(=O)O)cc2)cc1)c1ccccc1 (single isomer, unassigned) [Compound 99]
EC50: 10 to 100 nM
//
COMPOUND: CON=C(COc1ccc(CNc2ccc([C@@H]3C[C@H]3C(=O)O)cc2)cc1)c1ccccc1 (mixture of isomers) [Compound 14]
EC50: 10 to 100 nM
//
COMPOUND: CO/N=C(\COc1ccc(COc2ccc(C3CC3C(=O)O)cc2)cc1)c1ccc(C#N)cc1 (single isomer, unassigned) [Compound 79]
EC50: > 100 nM
//
COMPOUND: CO/N=C(\COc1ccc(COc2ccc(C(C#N)CC(=O)O)c(C)c2)cc1)c1ccccc1 (stereo not shown) [Compound 62]
EC50: 10 to 100 nM
//
COMPOUND: O=C(O)CCc1ccc(NCc2cccc(/C(=N\OCC(F)(F)F)c3ccccc3)c2)cc1 [Compound 9]
EC50: > 100 nM
//
COMPOUND: CO/N=C(\COc1ccc(COc2ccc(C(C#N)CC(=O)O)cc2)cc1)C1CC1 (stereo not shown) [Compound 105]
EC50: > 100 nM
//
COMPOUND: CO/N=C(\COc1ccc(COc2ccc(CCC(=O)O)c(C#N)c2)cc1)c1ccccc1 [Compound 42]
EC50: > 100 nM

---

TGT: hGPR40 (Homo sapiens)
PROTOCOL_NOTES: Calcium flux assay to detect GPR40 activation
ASSAY_SETUP: CHO-K cells stably expressing hGPR40; Fluo-4 NW; read for 4 min at 5 s intervals
PROPERTY_LABEL: EC50

MOLECULE: CO/N=C(/COc1ccc(COc2ccc(C(C#N)CC(=O)O)cc2)cc1)c1cccc(C)c1 (racemic)
TGT: hGPR40 (Homo sapiens)
PROPERTY_LABEL: EC50
RESULT: 10 to 100 nM
--
MOLECULE: N#CC(CC(=O)O)c1ccc(OCc2ccc(OC/C(=N\O)c3ccccc3)cc2)cc1 (stereo not shown) [Compound 109]
TGT: hGPR40 (Homo sapiens)
PROPERTY_LABEL: EC50
RESULT: > 100 nM
--
MOLECULE: CO/N=C(\COc1ccc(COc2ccc(/C(CC(=O)O)=N\OC3CCCCC3)cc2)cc1)c1ccccc1
TGT: hGPR40 (Homo sapiens)
PROPERTY_LABEL: EC50
RESULT: > 100 nM
--
MOLECULE: CO/N=C(/COc1ccc(COc2ccc(C(C#N)CC(=O)O)cc2)c(F)c1)c1ccccc1 (racemic)
TGT: hGPR40 (Homo sapiens)
PROPERTY_LABEL: EC50
RESULT: < 10 nM
--
MOLECULE: CO/N=C(\COc1ccc(COc2ccc(CCC(=O)O)c(-c3cc(C)on3)c2)cc1)c1ccccc1
TGT: hGPR40 (Homo sapiens)
PROPERTY_LABEL: EC50
RESULT: > 100 nM
--
MOLECULE: CO/N=C(\COc1ccc(COc2ccc(/C(CC(=O)O)=N\OC)cc2)cc1)c1ccccc1
TGT: hGPR40 (Homo sapiens)
PROPERTY_LABEL: EC50
RESULT: > 100 nM
--
MOLECULE: CO/N=C(\COc1ccc(COc2ccc(C(C#N)CC(=O)O)cc2)cc1)c1cccc(F)c1 (stereo not shown) [Compound 35]
TGT: hGPR40 (Homo sapiens)
PROPERTY_LABEL: EC50
RESULT: 10 to 100 nM
